# system: T1, human complement factor D purified from serum (human, UniProt P00746 26-253)
# T1 construct: serum-purified (CompTech); also called hCFD-Comptech; CFD
# T1 sequence (P00746 26-253): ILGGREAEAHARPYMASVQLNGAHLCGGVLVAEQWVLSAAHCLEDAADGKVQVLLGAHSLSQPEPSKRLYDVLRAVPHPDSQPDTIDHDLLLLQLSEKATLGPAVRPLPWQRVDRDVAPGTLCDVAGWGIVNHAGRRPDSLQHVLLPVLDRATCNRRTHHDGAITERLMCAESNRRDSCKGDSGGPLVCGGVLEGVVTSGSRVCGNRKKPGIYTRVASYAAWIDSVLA
# protocol-notes: SPR MX96
recorded-metric: Kd (nM)
The answer is to be given in nM; state only the numeric part.

{"columns": ["binder", "Kd [nM]"],
 "data": [
  ["KCD017 (antibody, V domains shown) VH: DVQLQESGPDLVKPSQSLSLTCTVTDYSITSGYSWHWIRQFPGNKLEWLGYIHSSGNTNYNPSLKSRFSITRDTSKNQFFLQLNSVTSEDTATYYCALHYYGSSFGWYFDVWGAGTTVTVSS VL: DIVMTQSHKFMSTSVGDRVYITCKASQDVGTAVAWYQQTSGQSPKLLIYWASTRHTGVPDRFTGSGSGTDFTLTLSNVQSEDLADYFCQQYTSYPLTFGAGTKLELK", 7.8]
]}

// switching to the query binder
Entry KCD131 (antibody, V domains shown, chimeric) VH: QVQLQQSGPELVKPGASVKISCKASAYTFTDYYINWVKQRPGQGPEWIGWIFPGSNSTYSNEKFEVKATLTVDESSSTAYMLLSSLTSEDSAVYFCARLGYFGSSYHALDYWGQGTSVTVSS VL: DIQMTQSPASLSVSVGETVTITCRASENIYSHLAWFQQKQGKSPRLLVYSATNLPDGVPSRFSGSGSGTQYSLKINILQSEDFGSYYCQHFWGTPWTFGGGTKLEIK ; Kd = 0.14

Values were extracted from patent US20180334496A1.
